test system: M14 melanoma; test: NCI tumour cell line growth inhibition, 48 h
This listing pairs compounds with measured GI50.

As a guide, the following entries are already answered.
• CCOC(=O)Cc1csc(NC(=O)C(OC(=O)c2ccc(Cl)cc2)c2ccccc2)n1 (stereo not given) = 22.1 µM
• OCC1OC(N2C=C(c3nc4ccccc4s3)C3C=CC=CC32)C(O)C(O)C1O (stereo not given) = 15.3 µM
• Cn1cnc([N+](=O)[O-])c1S(=O)(=O)Oc1ccc(Cl)cc1 = 2.36 µM
• COc1cccc(/C=N\NC(=O)c2ccncc2)c1O = 4.68 µM

Q) Give reported GI50 value for COc1cc(-n2cc(-c3ccc(Cl)cc3)n(-c3ccccc3)c2=O)cc(OC)c1OC
A) 23.8 µM

---

tested on: K-562 leukemia; assay: NCI tumour cell line growth inhibition, 48 h
property-measured: TGI

* Cn1c(=O)c2c(nc3n2CCCC(=O)N3CCCCl)n(C)c1=O | > 100 µM

Q) Recall and state the measured TGI for Clc1ccc(-c2cnc3c(-c4ccnc(N5CCNCC5)c4)cnn3c2)cc1 .
A) 3.74 µM

Q) Give the measured TGI for CC(=O)OCC1OC(SC2=N/C(=C\c3ccc(Br)s3)C(=O)N2c2ccccc2)C(OC(C)=O)C(OC(C)=O)C1OC(C)=O (centres undefined)
A) > 100 µM

Q) Give the reported TGI for this compound. COC(=O)C(Cc1nc2ccc(Cl)cc2[nH]c1=O)C(=O)C(=O)Nc1cc(C)ccc1C (centres undefined)
A) > 100 µM

Q) Consider the compound COc1cccc(C2=NC(C(C)C)CO2)c1OC (centres undefined) . State its measured TGI.
A) > 100 µM

Q) Give TGI for CC(=O)OCC12CC(CC1OC(C)=O)c1ccccc12 (centres undefined)
A) > 100 µM

Q) In one line, give reported TGI of the entry COC(=O)CCc1n(Cc2ccc3ccccc3c2)c2ccccc2[n+]1Cc1ccc2ccccc2c1 .
A) 1.63 µM

Q) Give a short answer stating reported TGI for COc1cccc(/C=C2\CCC(CN(C)C)C2=O)c1 (centres undefined) .
A) 4.89 µM

Q) Please supply the value of reported TGI for the item CC[C@]12CN3CCc4c([nH]c5ccccc45)[C@@](C(=O)OC)(c4cc5c(cc4OC)N(C)[C@H]4[C@@](O)(C(=O)OC)[C@H](OC(C)=O)[C@]6(CC)C=CCN7CC[C@]54[C@@H]76)CC(C3)[C@H]1O2 (some centres undefined)
A) > 50 µM

---

tested on: MDA-MB-435; test: NCI tumour cell line growth inhibition, 48 h
Catalogue of TGI readings, one per entry.

• Cc1ccc(/C(=N/NS(=O)(=O)c2cc(C)c(Cl)cc2Cl)Sc2cc(Cl)c(C)cc2S(N)(=O)=O)cc1 = > 100 µM

Consider the record given below.
Q) Provide measured TGI value, entry: CN1CCN(C)C1c1ccc(C2N(C)CCN2C)cc1
A) > 100 µM

---

List of log10(TGI) values.
test system: SF-268 CNS; test: NCI tumour cell line growth inhibition, 48 h
In plain terms, each number is the log10 of measured TGI in µM.

Consider the worked cases shown below.
• Clc1ccc(-c2cnc3c(-c4ccnc(N5CCNCC5)c4)cnn3c2)cc1 = 0.57
• Cc1csc2nc(-c3cccc([N+](=O)[O-])c3)c(/C=N/N=C(N)N)n12 = 0.52
• Cc1cc(C)c2c(=O)n(CC(O)CN(Cc3ccccc3)CC(O)Cn3sc4nc(C)cc(C)c4c3=O)sc2n1 (stereo not given) = 1.49
• COc1cccc(/C=C2\CCC(CN(C)C)C2=O)c1 (stereo not given) = 1.53
• COc1ccc(Sc2[nH]c(C=O)c3ccccc23)cc1 = 1.49

Next, consider the following compound.
Q) Note log10(TGI) for the compound shown: Nc1nc(Sc2ccc([N+](=O)[O-])c3nonc23)c2ncn(C3OC(CO)C(O)C3O)c2n1 (stereo not given)
A) 1.33

---

system: M14 melanoma; test: NCI tumour cell line growth inhibition, 48 h; in the data active = GI50 below about 0.43 µM; inactive = the rest
The categories you may choose from are active, inactive

• COc1cc2c(/C=C3\C(=O)N(C)c4ccccc43)c[nH]c2cc1C = inactive
• COc1cc2c3c(n(CCCN=[N+]=[N-])c(=O)c2cc1OC)-c1ccc([N+](=O)[O-])cc1C3=O = inactive
• c1cc(OCCN2CCCC2)ccc1CNc1ccc2nc(CCC3CCCCC3)[nH]c2c1 = inactive

Q) Which outcome was entered for the compound O=c1[nH]c(-c2ccc(Cl)c(Cl)c2)cn1-c1ccc(Cl)cc1 in this test?
A) inactive

Q) Assay outcome for CCn1nc(C2CCN(C(=O)CCO)CC2)nc1-c1cnc(N)c(-c2nnc(C(C)(C)C)o2)n1 : what was it?
A) inactive

Q) Called result for N#Cc1c(N)nc2c(c1-c1ccc(Cl)cc1)COc1ccc(F)cc1-2
A) inactive

Q) In this assay, the call recorded for COc1ccc(Nc2ncc(I)c(NCCCNC(=O)C3CCC3)n2)cc1 was what?
A) inactive

Q) Per the assay record, what outcome was assigned to COC(=O)c1c2c(c(C)[n+]([O-])c1C)C(=O)C(NCc1ccccc1)=CC2=O ?
A) inactive

Q) // return assay outcome for COc1ccc(Sc2[nH]c(C=O)c3ccccc23)cc1
A) inactive

Q) What did the test return for CC(C)(C)c1cc(C[P+](c2ccccc2)(c2ccccc2)c2ccccc2)cc(C(C)(C)C)c1O ?
A) active

---

test system: SR leukemia; assay: NCI tumour cell line growth inhibition, 48 h; in the data active = GI50 below about 0.43 µM; inactive = the rest
Return exactly one item of 1 for active, -1 for inactive

Answered examples (5):
• CC(C)CCN(CCC(C)C)CC(=O)Nc1ccc(S(=O)(=O)c2ccc(NC(=O)CN(CCC(C)C)CCC(C)C)cc2)cc1 = -1
• COC(=O)CCc1n(Cc2ccc3ccccc3c2)c2ccccc2[n+]1Cc1ccc2ccccc2c1 = 1
• COc1ccc(C2c3ccc4ccccc4c3Oc3ncn(CCCn4ccnc4)c(=N)c32)cc1OC (stereo unspecified) = -1
• CCOc1ccc(-c2nc3ccc(-c4nc5ccc(N6CCN(C)CC6)cc5[nH]4)cc3[nH]2)cc1 = 1
• CN1CCN(C)C1c1ccc(C2N(C)CCN2C)cc1 = -1

Q) Fill in: this test's call for COc1cccc(S(=O)(=O)NC2=NCCN2C(=S)SN2CCn3c2nsc3=S)c1 is ___
A) -1

---

tested on: SW-620 colon; experiment: NCI tumour cell line growth inhibition, 48 h
property-measured: TGI

• C=CC12CCCCC1CC(C(=O)OC)=C(O)C2 (stereo unspecified) = > 100 µM
• COc1ccc(C2(CC(C)C)CCNC2)cc1OC (stereo unspecified) = > 100 µM
• CCOC(=O)Cc1csc(NC(=O)C(OC(=O)c2ccc(Cl)cc2)c2ccccc2)n1 (stereo unspecified) = > 100 µM

Moving on to another molecule below.
Q) Note down TGI recorded for COc1ccc2cc3c4cc(OC)c(OC)cc4ccn3c2c1
A) > 100 µM

---

test system: MDA-N; experiment: NCI tumour cell line growth inhibition, 48 h
property-measured: TGI (µM)
# unit: µM | format: bare number

* COc1cccc(/C=C2\CCC(CN(C)C)C2=O)c1 (stereo not given) | 16.8

--- query ---
Q) Tell me its TGI given O=C(CCN1CCCCC1)Nc1ccc2c(c1)C(=O)c1ccc(NC(=O)CCN3CCCCC3)cc1C2=O as the entry.
A) 3.03

---

system: MCF7 breast; test: NCI tumour cell line growth inhibition, 48 h
property-measured: TGI

Past entries and their recorded results:
* COC(=O)c1c(O)ccc2c1c1c(n2CCc2ccc(OC)c(OC)c2)C(=O)c2ccccc2C1=O | 45.2 µM
* O=Cc1ccc(-c2ccc(-c3nc4ccccc4s3)cc2)o1 | 56.6 µM
* Cn1c(=O)c2c(nc3n2CCCC(=O)N3CCCCl)n(C)c1=O | > 100 µM
* Cn1c(-c2ccccc2)cc(-c2ccc3c(c2)OCO3)c1-c1ccsc1 | > 100 µM
* COc1cc(-n2cc(-c3ccc(Cl)cc3)n(-c3ccccc3)c2=O)cc(OC)c1OC | 56 µM

Q) Identify measured TGI obtained with MCF7 breast for Cc1cccc2c(N)c3cccc(C(=O)NCC[N+](C)(C)Cc4ccccc4[N+](=O)[O-])c3nc12 .
A) > 100 µM

Q) Fill in TGI for C[N+]1(C(CO)Cc2c[nH]c3ccccc23)Cc2ccccc2C1 (stereo not drawn) tested with MCF7 breast.
A) > 100 µM

Q) Quote MCF7 breast TGI for entry O=C(COc1ccccc1)NNc1ccccc1 .
A) > 300 µM

Q) // output TGI; input O=C(Nc1ccc(I)cc1F)c1cc(Br)ccc1O ; system MCF7 breast
A) 7.76 µM

Q) Name the value of TGI reported for O=C(NCCCCCCCCNC(=O)Nc1cccc2ccccc12)Nc1cccc2ccccc12 when tested on MCF7 breast.
A) > 100 µM

Q) Provide TGI, tested on MCF7 breast, for CCOC(=O)c1c(CN2CCNCC2)nc2ccc(Cl)cc2c1-c1ccccc1 .
A) 28.6 µM

Q) Give TGI for CCOC(=O)c1c(NN2CCN(CC(F)(F)F)CC2)oc(/C=C2\C=Nc3ncccc32)c1O tested on MCF7 breast.
A) 30.5 µM

Q) Specify TGI for c1ccc(CSC(SCc2ccccc2)c2cccc3ccccc23)cc1 , system MCF7 breast.
A) > 10 µM

Q) Give TGI for N=S(c1ccccc1[N+](=O)[O-])c1ccccc1[N+](=O)[O-] tested on MCF7 breast.
A) 0.266 µM
